Readings of self-cleavage kobs at 10000 uM GlcN6P for the listed variants
B1: glmS ribozyme (parent)
chain: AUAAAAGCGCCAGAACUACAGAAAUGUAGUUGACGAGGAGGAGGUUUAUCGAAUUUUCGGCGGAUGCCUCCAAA

Variants of: B1
EXPERIMENT DESCRIPTION: self-cleavage kobs at 10000 uM GlcN6P; higher = faster cleavage; RNA array
CONDITION CONTEXT: with glucosamine-6-phosphate
Variants at the floor of the assay were thinned out.
TEST READOUT: self-cleavage kobs at 10000 uM GlcN6P

[[record]]
sequence = "AUAAAAGCGCCAGAACUACAGAAAUGUAGUUGACGAGCAGGAGGUUUAUCGAAUUUUCGGCUGAUGCCUCCAAA"
measured = "< 1e-05 s⁻¹"

[[record]]
sequence = "AUAAAAGCGCCAAAACUACAGAAAUGUAGCUGACGAGGAGGUGGUUUAUCGAAUUUUCGGCGGAUGCCUCCAAA"
measured = "< 1e-05 s⁻¹"

[[record]]
sequence = "AUAAAAGCGCCUUAACUACAGAAAUGUAGUUGACGAGGAGGAGGUUUAUCGAAUUUUCGGCGGAUGCCUCCAAA"
measured = "0.000123 s⁻¹"

[[record]]
sequence = "AUAAAAGCGCCAGAACUACAGAAAUGUAGUUGACGAGGAGAAGGUUUAUCGAAUUUUCGGCGGAUGGCUUCAAA"
measured = "0.00166 s⁻¹"

[[record]]
sequence = "AUAAAAGCACCAGAACUACAGAAAUGUAGUUGACGAGGAGGAGGUUUAUCGUAUUUUCGGCGGAUGCCUCCAAA"
measured = "< 1e-05 s⁻¹"

[[record]]
sequence = "AUAAAAGCGCCUGAACUACAGAAAUGUAGUUGACGAGGAGCAGGUUUAUCGAAUUUUAGGCGGAUGCCUCCAAA"
measured = "< 1e-05 s⁻¹"

[[record]]
sequence = "AUAAAAGCGCCUGAACUACAGAAAUGUAGUUGACGAAGACGAGGUUUAUCGAAUUUUCGGCGGAUGCCUCCAAA"
measured = "0.000686 s⁻¹"

[[record]]
sequence = "AUAAAAGCGCCAGAACUACAGAAAUGUAGUUGACGAGGAGGAGGUUUAUCGAAUGUUCGGAGGAUGCCUCCAAA"
measured = "< 1e-05 s⁻¹"

[[record]]
sequence = "AUAAAAGCGCCUGAACUACAGAAAUGUAGUUGACGAAGAGGAGGUUUAUCGAAUUUUCGGCGGAUGCCUGCAAA"
measured = "9.11e-05 s⁻¹"

[[record]]
sequence = "AUAAAAGCGCCAGAACUACAGAAAUGUAGUUGACGAGGAAGAGGUUUAUCGAAUUUUCGGCGGAUGCCUCGAAA"
measured = "0.00695 s⁻¹"

[[record]]
sequence = "AUAAAAGCGCCAGAACUACAGAAAUGUAAUUGACCAGGAGGAGGUUUAUCGAAUUUUCGGCGGAUGCCUCCAAA"
measured = "< 1e-05 s⁻¹"

[[record]]
sequence = "AUAAACGCGCCAGAACUACAGAAAUGUAGUAGACGAGGAGGAGGUUUCUCGAAUUUUCGGCGGAUGCCUCCAAA"
measured = "< 1e-05 s⁻¹"

[[record]]
sequence = "AUAAAAGCGCCAGAACUACAGAAAUGUAGUUAACGAGGAGGAGGUUUAUCGAACUUUCGGCGGAUGCCUCCAAA"
measured = "0.0022 s⁻¹"

[[record]]
sequence = "AUAAAAGCGCCAGAACUACAGAAAUGUAGUUGACGAGGGGGAGGUUUAUCGAGUUUUCGGCGGAUGCCUCCAAA"
measured = "0.0725 s⁻¹"

[[record]]
sequence = "AUAAAAGCGCCAGAACUACAGAAAUGUAGUUGACGAGGAGAAGGUUUAUGGAAUUUUCGGCGGAUGCCUCCAAA"
measured = "< 1e-05 s⁻¹"

[[record]]
sequence = "AUAAAAUCGCCAGAACUACAGAAAUGUAGUUGACGAGGAGGUGGUUUAUCGAAUUUUCGGCGGAUGCCUCCAAA"
measured = "< 1e-05 s⁻¹"

[[record]]
sequence = "AUAAAAGCGCCAGAACUACAGAAAUGUAGUUGACGAGGUAGAGGUUUAUCGAAUUUUCGGCGGAUGCCUCCAAA"
measured = "0.00952 s⁻¹"

[[record]]
sequence = "AUAAAAGCGCCCGAACUACAGAAAUAUAGUUGACGAGGAGAAGGUUUAUCGAAGUUUCGGCGGAUGCCUCCAAA"
measured = "0.00044 s⁻¹"

[[record]]
sequence = "AUAAAAGAGCCAGAGCUACAGAAAUGUAGUUUACGAGGAGGAGUUUUAUCGAAUUUUCGGCGGAUGACUCCAAA"
measured = "< 1e-05 s⁻¹"

[[record]]
sequence = "AUAAAAGCGCCCGCACUACAGAAAUGUAGUUGACGAGGAGGAGGUUUAUCGAAUUUUCGGCGGAUGCCUUCAAA"
measured = "8.48e-05 s⁻¹"

[[record]]
sequence = "AUAAAAGCGCCAGAACUACAGAAAUGUAGUUGACGAGGAGGAGGUUUAUCAAAUUUUCGGCGGCUGCCUCCAAA"
measured = "< 1e-05 s⁻¹"

[[record]]
sequence = "AUAAAAGCGCCAGAACUACAGAAAUGUAGUGGACGAGGAGGAGGUUUAUCGAAUUCUUGGCGGAUGCCUCCAAA"
measured = "6.36e-05 s⁻¹"

[[record]]
sequence = "AUAAAAGCGCCACAACUACAGAAAUGUAGUUGACGAGGAGGAGGUUGAUCGAAUUUUCGGCGGAUGCCUCCAAA"
measured = "3.53e-05 s⁻¹"

[[record]]
sequence = "AUAAAAGCGCCAGAACUACAGAAAUGUAGUUGACGAGGAGGAGUAUUAUCGAAUUUUCGGCGGAUGCCUCCAAA"
measured = "0.00046 s⁻¹"

[[record]]
sequence = "AUAAAAGCGCCAGAACUACAGAAAUGUAGUUGACGAGUAGGAGGUUUAUCGAAUUCUCGGCGGAUGCCUCCAAA"
measured = "< 1e-05 s⁻¹"

[[record]]
sequence = "AUAAAAGCGCCAGAACUACAGAAAUGUAGUUUACGAGGAGGAGGUUUAUCGAAUUCUCGGCGGAUGCCUCCAAA"
measured = "0.000127 s⁻¹"

[[record]]
sequence = "AUAAAAGCGCCAGGACUACAGAAAUGUAGUUGACGAGGAGGAGGUUUAUCGAGUUUUCGGCGGAUGCCUCCAAA"
measured = "0.0452 s⁻¹"

[[record]]
sequence = "AUAAAAGCGCCAGAACUACAGAAAUGUAGUUUACGAGGAGGAGGGCUAUCGAAUUUUCGGCGGAUGACUCCAAA"
measured = "7.22e-05 s⁻¹"

[[record]]
sequence = "AUAAAAGCGCCAGAACUACAGAAAUGUAGUUGACGAGGAGGAGGUUUAUCGAAUUUUCGGCGGGGGCCUCCAAA"
measured = "0.00489 s⁻¹"

[[record]]
sequence = "AUAAAAACGCCAGAACUACAGAAAUGUAGUUGACGAGGAGGAGGUUUGUCGAAUUUUCGGCGGAAGCCUCCAAA"
measured = "< 1e-05 s⁻¹"

[[record]]
sequence = "AUAAAAGAGCCAGAACUACAGAAAUGUAGUGGACGAGGAGGAGGUUUAUCGAAUUUUCGGAGGAUGCCUCCAAA"
measured = "< 1e-05 s⁻¹"

[[record]]
sequence = "AUAAAAGCGCCAGAACUACAGAAAUGUAGUUGACGAGGAGGAGGUUUAUCGAAUUUUCGGCGGAUCCCUACAAA"
measured = "9e-05 s⁻¹"

[[record]]
sequence = "AUAAAAGCGCCAGAACUACAGAAAUGUAGUUGACGAAGUGGGGGUUUAUUGAAUUUUCGGCGGAUGCCUCCAAA"
measured = "< 1e-05 s⁻¹"

[[record]]
sequence = "AUAAAAGCGCCAGAGCUACAGAAAUGUAGUUGACGAGGAGGAGGUUUAUCGAAUUUUCGGCGGAUACCUCCAAA"
measured = "0.0412 s⁻¹"

[[record]]
sequence = "AUAAAAGCGCCAGAACUACAGAAAUGUACUUGACGAGGCGGAGGUUUAUCGAAUUUUCGGCGGAUGCCUCCAAA"
measured = "0.000406 s⁻¹"

[[record]]
sequence = "AUAAAAGCGCCAGAACUACAGAAAUGUAGUUGACGAGGCGGAGGUCUAUCGAAUUUUCGGCGGAUGCCUCCAAA"
measured = "0.00206 s⁻¹"

[[record]]
sequence = "AUAAAAGCGCCAGUACUACAGAAAUGUAGUUGACGGGGAGGAGGUUUAUCGAAUUUUCGGCGGAUUCCUCCAAA"
measured = "< 1e-05 s⁻¹"

[[record]]
sequence = "AUAAAAGCGCCAGGACUACAGAAAUGUAGUUGACGAGGAGGAGCUUUAUCGAAUGUUCGGCGGAUGUCUCCAAA"
measured = "0.000221 s⁻¹"

[[record]]
sequence = "AUAAAAGCGCCAGAACUACAGAAAUGUAGUUGAUCAGGAGGAGGUUUAUCGAAUUUUCGGCGGAUGCCUCCAAA"
measured = "< 1e-05 s⁻¹"

[[record]]
sequence = "AUAAAAGCGCAAGAACUACAGAAAUGUAGUUGACGAGGAAGAGGUUUAUCGAAUGUUCGGCGGAUGCCUCGAAA"
measured = "< 1e-05 s⁻¹"

[[record]]
sequence = "AUAAAAGCGCCAGAACUACAGAAAUGUAAUUGACAAGGAGGAGGUUUAUCGAAUUUUCGGCGGAUGCGUCCAAA"
measured = "0.000106 s⁻¹"

[[record]]
sequence = "AUAAAAGCGCCAGAACUACAGAAAUGUAGUUGACGAGGAGGAGGUUUACCGAAUUUUCGGCAGAUGCCUCCAAA"
measured = "< 1e-05 s⁻¹"

[[record]]
sequence = "AUAAAAGCGCCAGCACUACAGAAAUGUAGUUGACGAGGAGGAGGUUUAUCGAAUUUCCGGCGGAUGCCUCCAAA"
measured = "4.96e-05 s⁻¹"

[[record]]
sequence = "AUAAAAGCGCCGGAACUACAGAAAUGUAGUUGACGAGGAGGAGUUUUAUCGAAUUUUGGGCGGAUGCCUCCAAA"
measured = "< 1e-05 s⁻¹"

[[record]]
sequence = "AUAAAAGCGCCAGAAUUACAGAAAUGUAGUUGACGAGAAGGAGGUUUAUCGGAUUUUCGGCGGAUGCCUCGAAA"
measured = "< 1e-05 s⁻¹"

[[record]]
sequence = "AUAAAAGCGCCAGAACUACAGAAAUGUACUUGACGAGGAAGAGGUUUAUCGAAUUUUCGGCGGAUGCCUCCAAA"
measured = "0.000178 s⁻¹"

[[record]]
sequence = "AUAAAAGCGCCAGAACUACAGAAAUGUAGUUGACGAGGUGGCGGUUUAUCGAAUUUUCGGCGGAUGCCUCCAAA"
measured = "0.000419 s⁻¹"

[[record]]
sequence = "AUAAAAGCGCCAGAACUACAGAAAUGUAGUUGACGAGGAGGAGGUUUAUCGAUUUUUGGGCGGAUGCCUCCAAA"
measured = "8.57e-05 s⁻¹"

[[record]]
sequence = "AUAAAAGCGCCAGAACUACAGAAAUGUAGUUGACGAGGUGGAGGUUUAUCGAAUUUUCGGCGGAUCACUCCAAA"
measured = "0.000455 s⁻¹"

[[record]]
sequence = "AUAAAAGCGCCAGAACUACAGAAAUGUAGUUGACGAGGAGGAGGUUUAUCGAAUUUUCGGCGGGUGCCUCGAAA"
measured = "0.000398 s⁻¹"

[[record]]
sequence = "AUAAAAGCGCCAGAACUACAGAAAUGUAGUUGACGAGGAUGAGGUUUAUCGAAUUUUCGGCGGAUGCCCCCAAA"
measured = "7.39e-05 s⁻¹"

[[record]]
sequence = "AUAAAAGGGACAGAACUACAGAAAUGUAGUUGACGAGGAGGAGGUUUAUCGAAUUUUCGGCGGAUGCCUCCAAA"
measured = "< 1e-05 s⁻¹"

[[record]]
sequence = "AUAAAAGCGCCAGUACUACAGAAAUGUAGUUGACGAGGAGGAGGUUUAUCGAAUUUUCGUCGGAUGCCUCCAAA"
measured = "< 1e-05 s⁻¹"

